B1: KRT34 (parent)
chain: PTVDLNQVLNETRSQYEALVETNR

Variants of: B1
Test: protein stability index of a GFP-peptide fusion (GPS, HEK-293T) (PSI 1-6); higher = more stable;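 also: lentivirally expressed fusions sorted by FACS into six bins by GFP to DsRed ratio, PSI derived from sequencing read proportions per bin multiplied by bin number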
Conditions: c terminus: a fixed tail appended
This listing pairs variants with measured protein stability index.

Reference set, count: 3
{"mutation string": "S14T", "attribute measured": "protein stability index", "value": 2.96}
{"mutation string": "V20C", "attribute measured": "protein stability index", "value": 3.68}
{"mutation string": "E17V", "attribute measured": "protein stability index", "value": 3.7}

Task: What value of protein stability index has been reported for the following variant? `E11W`
Output: 3.15

Task: What value of protein stability index has been reported for the following variant? `Y16H`
Output: 5.25

Task: What value of protein stability index has been reported for the following variant? `V20D`
Output: 4.71

Task: What value of protein stability index has been reported for the following variant? `Q15I`
Output: 2.96

Task: What value of protein stability index has been reported for the following variant? `R13I`
Output: 2.83
